Where these numbers come from: patent US8269043B2

The compounds listed here are annotated with their ED50.
test system: circulating lymphocytes; experiment: Lymphopenia assay: circulating lymphocytes after oral gavage; format: in vivo; conditions: Mus musculus, Lymphocyte, po, C57bl/6 male mice, oral gavage 0.5 and 5 mg/kg in 30% HPCD, blood 5 and 24 hours after administration
metric: ED50

1. CC(C)C1CCC(Oc2ccc3cc([C@@](C)(N)CO)ccc3c2)CC1 (some centres unmarked)    0.5 to 5 mg/kg
2. CCCC[C@H]1CC[C@@H](Oc2ccc3cc([C@@](C)(N)CO)ccc3c2C(F)(F)F)CC1    0.07 mg/kg
3. CC(C)(C)[C@H]1CC[C@H](Oc2c(Cl)c(Cl)c3cc([C@@](C)(N)CO)ccc3c2Cl)CC1    > 5 mg/kg
4. C[C@](N)(CO)c1ccc2cc(Oc3ccc(Cl)cc3)ccc2c1    0.5 to 5 mg/kg
5. CCC(F)(F)[C@H]1CC[C@H](Oc2ccc3cc([C@@](C)(N)CO)ccc3c2C(F)(F)F)CC1    < 0.5 mg/kg
6. CC(C)c1cccc(Oc2ccc3cc([C@@](C)(N)CO)ccc3c2)c1    > 5 mg/kg
7. CC(C)(C)[C@H]1CC[C@H](Oc2ccc3cc(C4(N)COC4)ccc3c2)CC1    0.5 to 5 mg/kg
8. C[C@](N)(CO)c1ccc2c(C(F)(F)F)c(O[C@H]3CC[C@H](C(F)(F)F)CC3)ccc2c1    < 0.5 mg/kg
